# Test system: HeLa Kyoto;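 further: synchronized HeLa Kyoto cells, proteins quantified by TMT10plex mass spectrometry, three biological replicates, mitosis taken 0.5 h after nocodazole release, G1/S directly after double thymidine block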
# MEASUREMENT PROTOCOL: thermal stability score vs G1/S (z-score of summed log2 fold changes over temperatures); higher = more thermally stable than in G1/S
# EXPERIMENTAL SETUP: cell cycle stage: mitosis

CHAIN SEQUENCE: MGAVWSALLVGGGLAGALFVWLLRGGPGDTGKDGDAEQEKDAPLGGAAIPGGHQSGSSGLSPGPSGQELVTKPEHLQESNGHLISKTKDLGKLQAASWRLQNPSREVCDNSREHVPSGQFPDTEAPATSETSNSRSYSEVSRNESLESPMGEWGFQKGQEISAKAATCFAEKLPSSNLLKNRAKEEMSLSDLNSQDRVDHEEWEMVPRHSSWGDVGVGGSLKAPVLNLNQGMDNGRSTLVEARGQQVHGKMERVAVMPAGSQQVSVRFQVHYVTSTDVQFIAVTGDHECLGRWNTYIPLHYNKDGFWSHSIFLPADTVVEWKFVLVENGGVTRWEECSNRFLETGHEDKVVHAWWGIH [STBD1]
thermal stability score: -0.125
//
CHAIN SEQUENCE: MKIKDAKKPSFPWFGMDIGGTLVKLSYFEPIDITAEEEQEEVESLKSIRKYLTSNVAYGSTGIRDVHLELKDLTLFGRRGNLHFIRFPTQDLPTFIQMGRDKNFSTLQTVLCATGGGAYKFEKDFRTIGNLHLHKLDELDCLVKGLLYIDSVSFNGQAECYYFANASEPERCQKMPFNLDDPYPLLVVNIGSGVSILAVHSKDNYKRVTGTSLGGGTFLGLCSLLTGCESFEEALEMASKGDSTQADKLVRDIYGGDYERFGLPGWAVASSFGNMIYKEKRESVSKEDLARATLVTITNNIGSVARMCAVNEKINRVVFVGNFLRVNTLSMKLLAYALDYWSKGQLKALFLEHEGYFGAVGALLGLPNFS [PANK3]
thermal stability score: -0.972
//
CHAIN SEQUENCE: MGCTLSAEDKAAVERSKMIDRNLREDGEKAAKEVKLLLLGAGESGKSTIVKQMKIIHEDGYSEDECKQYKVVVYSNTIQSIIAIIRAMGRLKIDFGEAARADDARQLFVLAGSAEEGVMTPELAGVIKRLWRDGGVQACFSRSREYQLNDSASYYLNDLDRISQSNYIPTQQDVLRTRVKTTGIVETHFTFKDLYFKMFDVGGQRSERKKWIHCFEGVTAIIFCVALSDYDLVLAEDEEMNRMHESMKLFDSICNNKWFTETSIILFLNKKDLFEEKIKRSPLTICYPEYTGSNTYEEAAAYIQCQFEDLNRRKDTKEIYTHFTCATDTKNVQFVFDAVTDVIIKNNLKECGLY [GNAI3]
thermal stability score: 0.823
//
CHAIN SEQUENCE: MGRLVAVGLLGIALALLGERLLALRNRLKASREVESVDLPHCHLIKGIEAGSEDIDILPNGLAFFSVGLKFPGLHSFAPDKPGGILMMDLKEEKPRARELRISRGFDLASFNPHGISTFIDNDDTVYLFVVNHPEFKNTVEIFKFEEAENSLLHLKTVKHELLPSVNDITAVGPAHFYATNDHYFSDPFLKYLETYLNLHWANVVYYSPNEVKVVAEGFDSANGINISPDDKYIYVADILAHEIHVLEKHTNMNLTQLKVLELDTLVDNLSIDPSSGDIWVGCHPNGQKLFVYDPNNPPSSEVLRIQNILSEKPTVTTVYANNGSVLQGSSVASVYDGKLLIGTLYHRALYCEL [PON2]
thermal stability score: 4.5
